- system_tested: Estrogen receptor (Homo sapiens)
- protocol_description: OT_ER_ERaERa_1440: Odyssey Thera (OT) 24-hour HEK293T Protein-Complementation Assay for Estrogen Receptor-alpha/-alpha Homodimer (AID 2283349);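 also: hits raise fluorescence above DMSO for agonists and antagonists alike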
- Experimental: OT_ER_ERaERa_1440 is a cell-based assay that uses HEK293T, a human kidney cell line, with measurements taken at 24 hours after chemical dosing in a 384-well plate.OT_ER_ERaERa_1440 is one of one assay component(s) measured or calculated from the OT_ER_ERaERa_1440 assay. […] This assay endpoint, OT_ER_ERaERa_1440, was analyzed in the positive analysis fitting direction relative to DMSO as the negative control and baseline of activity. […]
Calls of active or inactive are those of the source. The calls were made as follows: active = hit-call score of the fitted dose curve at least 0.9, where 1 is the maximum; inconclusive = response in the unintended direction; inactive = score below 0.9.
observation_type: AC50

Worked cases, AC50 given:
* O=C(O)CCCC[C@@H]1SC[C@@H]2NC(=O)N[C@@H]21 | inactive
* CC(C)c1ccc2c(C(C)C)cc(C(C)C)c(S(=O)(=O)O)c2c1 | inactive
* CCCCC(CC)CCC(CC(C)C)OS(=O)(=O)O (stereo unspecified) | inactive
* CC(C)(C)c1ccc(OC(=O)c2ccccc2O)cc1 | 14.5 µM (active)
* O=C1C(N(CO)C(=O)NCO)N(CO)C(=O)N1CO (stereo unspecified) | inactive
* NC(=O)c1ccccc1O | inactive
* CC=C1CC2C=CC1C2 (stereo unspecified) | inactive
* O=C(C(Cl)Cl)N1CCOC12CCCCC2 | inactive

Tell me its AC50 on Estrogen receptor (Homo sapiens): CC(CC=O)CCCC(C)(C)O (stereo unspecified)
inactive

Tell me its AC50 on Estrogen receptor (Homo sapiens): `CCCCCCCCCCCCCOP(=O)(O)O`
inactive

Tell me its AC50 on Estrogen receptor (Homo sapiens): `Cn1c([N+](=O)[O-])cnc1COC(N)=O`
inactive

Attribution: PubChem BioAssay (EPA / NIEHS)
